Data provenance is patent US20240279207A1.

Let's look at some compounds and their measured pIC50.
molecular target: Recombinant human GST-tagged Kat6b protein (431-end) (Homo sapiens); construct: Kat6b protein (431-end, N-terminal GST-tag); GST (N); experiment: Kat6b activity assay (TR-FRET, acetylation of Histone-H4-derived peptide); details: 30 mins at 22° C., 500 nM H4 peptide, 600 nM Acetyl Coenzyme A, read-out: KAT6B activity assay IC50 [mol/l] (arithmetic mean)
Sequence (Q8WYB5 431-2073): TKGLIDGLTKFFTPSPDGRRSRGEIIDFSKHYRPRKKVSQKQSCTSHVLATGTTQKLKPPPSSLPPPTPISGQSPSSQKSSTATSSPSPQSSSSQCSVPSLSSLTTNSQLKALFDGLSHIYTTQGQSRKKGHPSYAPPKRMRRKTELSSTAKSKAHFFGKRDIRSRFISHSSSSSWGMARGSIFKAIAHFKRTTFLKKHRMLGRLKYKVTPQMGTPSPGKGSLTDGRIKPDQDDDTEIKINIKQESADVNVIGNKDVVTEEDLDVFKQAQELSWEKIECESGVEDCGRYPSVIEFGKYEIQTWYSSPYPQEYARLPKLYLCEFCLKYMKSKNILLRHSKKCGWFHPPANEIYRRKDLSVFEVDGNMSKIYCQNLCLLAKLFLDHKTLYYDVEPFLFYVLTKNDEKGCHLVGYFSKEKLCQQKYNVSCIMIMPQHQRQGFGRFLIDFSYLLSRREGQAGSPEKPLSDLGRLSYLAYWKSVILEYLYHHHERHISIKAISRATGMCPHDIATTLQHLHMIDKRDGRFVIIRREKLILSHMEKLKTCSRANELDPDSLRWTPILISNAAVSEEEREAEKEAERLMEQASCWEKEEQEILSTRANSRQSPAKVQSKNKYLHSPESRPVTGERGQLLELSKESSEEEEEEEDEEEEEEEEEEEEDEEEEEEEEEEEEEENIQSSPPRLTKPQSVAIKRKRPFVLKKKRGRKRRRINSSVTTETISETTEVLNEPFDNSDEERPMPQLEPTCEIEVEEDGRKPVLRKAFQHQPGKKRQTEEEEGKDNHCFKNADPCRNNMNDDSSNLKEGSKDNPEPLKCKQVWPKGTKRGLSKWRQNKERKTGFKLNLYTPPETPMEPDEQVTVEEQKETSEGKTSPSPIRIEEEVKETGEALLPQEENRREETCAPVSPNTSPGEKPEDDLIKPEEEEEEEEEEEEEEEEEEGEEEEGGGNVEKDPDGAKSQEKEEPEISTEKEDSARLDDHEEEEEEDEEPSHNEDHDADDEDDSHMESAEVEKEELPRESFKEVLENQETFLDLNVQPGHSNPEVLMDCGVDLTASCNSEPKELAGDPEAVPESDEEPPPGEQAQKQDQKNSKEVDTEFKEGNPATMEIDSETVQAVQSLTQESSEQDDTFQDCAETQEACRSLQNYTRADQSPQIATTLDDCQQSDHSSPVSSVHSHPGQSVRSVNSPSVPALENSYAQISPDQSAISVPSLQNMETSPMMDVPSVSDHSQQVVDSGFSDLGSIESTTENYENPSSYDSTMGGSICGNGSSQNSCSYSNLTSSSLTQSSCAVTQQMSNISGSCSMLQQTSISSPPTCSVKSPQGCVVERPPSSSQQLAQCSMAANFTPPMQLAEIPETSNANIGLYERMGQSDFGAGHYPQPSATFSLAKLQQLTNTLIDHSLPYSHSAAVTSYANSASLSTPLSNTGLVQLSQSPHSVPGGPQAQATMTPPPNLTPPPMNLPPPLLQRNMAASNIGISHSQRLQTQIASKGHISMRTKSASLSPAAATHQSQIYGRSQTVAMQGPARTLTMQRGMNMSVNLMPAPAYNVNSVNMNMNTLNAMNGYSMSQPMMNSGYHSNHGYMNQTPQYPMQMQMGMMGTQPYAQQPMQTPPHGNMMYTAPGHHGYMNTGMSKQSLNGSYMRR
Here pIC50 is given on a logarithmic scale as minus log10 of the concentration in mol/L.

Worked examples, 6 compounds total:
- CCOc1ccccc1S(=O)(=O)NC(=O)c1cc2c(F)cc(N3CCC3)cc2o1 [Example 2]: 7.02
- CC(C)c1cccnc1S(=O)(=O)NC(=O)c1cc2c(F)cc(N3CCC3)cc2o1 [Example 79]: 7.87
- CC(C)c1ccc(OCC2CC2)c(S(=O)(=O)NC(=O)c2cc3c(F)cc(N4CCC4)cc3o2)c1 [Example 214]: 7.69
- O=C(NS(=O)(=O)c1ccccc1OC1CC1)c1cc2c(F)cc(N3CCC3)cc2o1 [Example 131]: 7.63
- CCOc1ccccc1S(=O)(=O)NC(=O)c1cc2c(F)cc(N3CCC3)cc2o1 [Example 126]: 6.55
- CC(C)(C)c1ccc(OC2CC2)c(S(=O)(=O)NC(=O)c2cc3c(F)cc(N4CCC4)cc3o2)c1 [Example 224]: 8.01

# returns recorded pIC50 (system: Recombinant human GST-tagged Kat6b protein (431-end) (Homo sapiens)) for CC(C)c1ccc(OCC2CC2(F)F)c(S(=O)(=O)NC(=O)c2cc3c(F)cc(N4CCC4)cc3o2)c1 (racemic) [Example 231]
7.54

Record CC(C)Oc1ccccc1S(=O)(=O)NC(=O)c1cc2c(F)cc(N3CCC3)cc2o1 [Example 129] : what is its pIC50 with Recombinant human GST-tagged Kat6b protein (431-end) (Homo sapiens)?
7.29

Write down the reported pIC50 of CCOc1ccccc1S(=O)(=O)NC(=O)c1cc2ccc(N3CC(F)C3)cc2o1 [Example 107] , test system: Recombinant human GST-tagged Kat6b protein (431-end) (Homo sapiens).
6.07

Request body: readout pIC50, system Recombinant human GST-tagged Kat6b protein (431-end) (Homo sapiens), query CC(C)(C)c1ccc(OC2CCC2)c(S(=O)(=O)NC(=O)c2cc3c(F)cc(N4CCC4)cc3o2)c1 [Example 228] . Return the value.
7.87

What value of pIC50 on Recombinant human GST-tagged Kat6b protein (431-end) (Homo sapiens) does CCOc1ccc(C(C)CC)cc1S(=O)(=O)NC(=O)c1cc2c(F)cc(N3CCC3)cc2o1 (racemic) [Example 207] have?
8.25

###

molecular target: Recombinant human His-tagged Kat6a protein (amino acids 194-810) (Homo sapiens); construct: Kat6a protein (amino acids 194-810); His; assay: Kat6a activity assay (TR-FRET, acetylation of Histone-H4-derived peptide); format: biochemical; conditions: 60 mins at 22° C., 220 nM H4 peptide, 600 nM Acetyl Coenzyme A, read-out: KAT6A - DPF/HAT domain IC50 [mol/l] (arithmetic mean)
PROPERTY NAME: log10 IC50 (log10 of the value in nM)
Reminder: these figures are log10 of reported IC50, in nM before transformation.

Any idea what log10 IC50 came out for CC(C)(C)c1ccc(OCC2CC2)c(S(=O)(=O)NC(=O)c2cc3c(F)cc(N4CCC4)cc3o2)c1 on Recombinant human His-tagged Kat6a protein (amino acids 194-810) (Homo sapiens)?
0.25

Hi! What's the reported log10 IC50 for CCOc1ccccc1S(=O)(=O)NC(=O)c1cc2c(F)cc(N3CCC3)cc2o1 [Example 126] on Recombinant human His-tagged Kat6a protein (amino acids 194-810) (Homo sapiens)?
1.75

Find log10 IC50 (Recombinant human His-tagged Kat6a protein (amino acids 194-810) (Homo sapiens)) for the entry CCS(=O)(=O)c1ccccc1S(=O)(=O)NC(=O)c1cc2c(F)cc(N3CCC3)cc2o1
2.32

// fetch Recombinant human His-tagged Kat6a protein (amino acids 194-810) (Homo sapiens) log10 IC50 for COc1cccc2c(S(=O)(=O)NC(=O)c3cc4c(F)cc(N5CCC5)cc4o3)cccc12
1.76

Short answer please: log10 IC50, Recombinant human His-tagged Kat6a protein (amino acids 194-810) (Homo sapiens), entry Cc1nn(C(C)C)cc1S(=O)(=O)NC(=O)c1cc2c(F)cc(N3CCC3)cc2o1
2.58

Report log10 IC50 for COc1ccc(-c2cnn(C)c2)cc1S(=O)(=O)NC(=O)c1cc2c(F)cc(N3CCC3)cc2o1 tested on Recombinant human His-tagged Kat6a protein (amino acids 194-810) (Homo sapiens).
1.51

For Recombinant human His-tagged Kat6a protein (amino acids 194-810) (Homo sapiens), provide log10 IC50 of Cc1ccc2cccc(S(=O)(=O)NC(=O)c3cc4c(F)cc(N5CCC5C(C)(C)O)cc4o3)c2n1 (racemic) please.
3.04

Give the reported log10 IC50 for O=C(NS(=O)(=O)c1ccccc1C1=NOCCO1)c1cc2c(F)cc(N3CCC3)cc2o1 (system: Recombinant human His-tagged Kat6a protein (amino acids 194-810) (Homo sapiens)).
3.80

###

molecular target: Recombinant human His-tagged Kat6a protein (amino acids 194-810) (Homo sapiens); construct: Kat6a protein (amino acids 194-810); His; assay: Kat6a activity assay (TR-FRET, acetylation of Histone-H4-derived peptide); format: biochemical; details: 60 mins at 22° C., 220 nM H4 peptide, 600 nM Acetyl Coenzyme A, read-out: KAT6A - DPF/HAT domain IC50 [mol/l] (arithmetic mean)
PROPERTY NAME: IC50 (nM)
# number only, unit nM dropped from output

- CC(C)c1ccc(OCC2CC2)c(S(=O)(=O)NC(=O)c2cc3c(F)cc(N4CCC4)cc3o2)c1: 3.91

Report IC50 for COc1ccc2cccnc2c1S(=O)(=O)NC(=O)c1cc2c(F)cc(N3CCC3)cc2o1 please.
21

Please look up its IC50: O=C(NS(=O)(=O)c1cnn2c1OCCC2)c1cc2c(F)cc(N3CCC3)cc2o1
294

Requested read-out: IC50. Entry: COC(=O)Cc1ccc2c(S(=O)(=O)NC(=O)c3cc4c(F)cc(N5CCC5)cc4o3)cccc2c1
120

What does the data say about its IC50? Entry: CC(C)c1ccc(OCC(F)(F)F)c(S(=O)(=O)NC(=O)c2cc3c(F)cc(N4CCC4)cc3o2)c1
7.18

Which IC50 is reported for this compound? CCOc1ccc(C(C)(C)C)cc1S(=O)(=O)NC(=O)c1cc2c(F)cc(N3CCC3)cc2o1
1.41

What value of IC50 has been recorded for this entry: CC(C)OC(=O)c1ccccc1S(=O)(=O)NC(=O)c1cc2c(F)cc(N3CCC3)cc2o1
121

Given the entry CC1(C)CCc2cccc(S(=O)(=O)NC(=O)c3cc4c(F)cc(N5CCC5)cc4o3)c2O1 , report its measured IC50.
12.1

Record request: IC50 value, item Cc1ccc(F)c(S(=O)(=O)NC(=O)c2cc3c(F)cc(N4CCC4)cc3o2)c1F
127

Item under review: CCc1cccc(OC(C)C)c1S(=O)(=O)NC(=O)c1cc2c(F)cc(N3CCC3)cc2o1 . Reported IC50?
42.7

Please give the measured IC50 for this compound: CC(C)c1ccc(OCc2ccccc2)c(S(=O)(=O)NC(=O)c2cc3c(F)cc(N4CCC4)cc3o2)c1
6.18

###

Collected IC50 values appear next to each entry.
molecular target: Recombinant human His-tagged Kat6a protein (amino acids 194-810) (Homo sapiens, UniProt Q92794); construct: Kat6a protein (amino acids 194-810); His; experiment: Kat6a activity assay (TR-FRET, acetylation of Histone-H4-derived peptide); conditions: 60 mins at 22° C., 220 nM H4 peptide, 600 nM Acetyl Coenzyme A, read-out: KAT6A - DPF/HAT domain IC50 [mol/l] (arithmetic mean)
Sequence (Q92794 194-810): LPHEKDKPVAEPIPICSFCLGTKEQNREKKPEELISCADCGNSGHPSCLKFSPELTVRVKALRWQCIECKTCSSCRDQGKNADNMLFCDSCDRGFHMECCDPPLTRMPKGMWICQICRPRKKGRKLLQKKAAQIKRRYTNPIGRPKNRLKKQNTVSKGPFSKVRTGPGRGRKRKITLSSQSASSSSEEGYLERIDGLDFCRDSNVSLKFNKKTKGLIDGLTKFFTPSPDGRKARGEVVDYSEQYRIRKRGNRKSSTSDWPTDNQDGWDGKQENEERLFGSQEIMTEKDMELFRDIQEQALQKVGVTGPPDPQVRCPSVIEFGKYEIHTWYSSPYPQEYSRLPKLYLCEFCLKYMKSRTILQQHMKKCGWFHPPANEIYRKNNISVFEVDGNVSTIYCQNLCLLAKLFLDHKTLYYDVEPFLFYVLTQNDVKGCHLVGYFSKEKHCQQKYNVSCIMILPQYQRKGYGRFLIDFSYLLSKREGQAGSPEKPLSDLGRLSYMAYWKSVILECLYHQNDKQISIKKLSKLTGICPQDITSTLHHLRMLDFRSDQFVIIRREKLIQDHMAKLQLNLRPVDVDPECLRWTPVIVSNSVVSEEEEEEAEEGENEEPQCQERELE
Write your answer as a measured quantity: the number, then the unit.

• CCCc1cccc(S(=O)(=O)NC(=O)c2cc3c(F)cc(N4CCC4)cc3o2)c1 [Example 40] = 64.2 nM

// IC50 lookup, key: Cc1cc2c(c(S(=O)(=O)NC(=O)c3cc4c(F)cc(N5CCC5)cc4o3)c1C)OC(C)(C)C2 [Example 204]
7.7 nM

Which measured IC50 value corresponds to O=C(NS(=O)(=O)c1cc(CO)ccc1OC(F)(F)F)c1cc2c(F)cc(N3CCC3)cc2o1 [Example 63] ?
131 nM

Endpoint output: IC50 of Cc1cc(Nc2ccccc2S(=O)(=O)NC(=O)c2cc3c(F)cc(N4CCC4)cc3o2)n(-c2ccccc2)n1 [Example 70] . Value?
494 nM
